Sourced from patent US20230302159A1

Test Description: Fluorescence properties of the CypH dyes at pH 5.0 and pH 7.5 (Table 2)
Format: physicochemical
Condition Summary: fluorescence intensity pH 5.0 over pH 7.5
Ratio Intensity pH 5.0/7.5 under 40 gets T, anything at or over 40 gets F.

- CC(C)N(C)c1ccc(OC2=C(/C=C/C3=[N+](CCCS(=O)(=O)[O-])c4ccccc4C3(C)C)CCC/C2=C\C=C2\N(CCCS(=O)(=O)[O-])c3ccccc3C2(C)C)cc1.[Na+] [CypH-9]: T
- CCCN1/C(=C/C=C2\CCCC(/C=C/C3=[N+](CCC)c4ccccc4C3(C)C)=C2Oc2ccc(N(C)CC)cc2)C(C)(C)c2ccccc21.[I-] [CypH-18]: T
- CCN(C)c1ccc(OC2=C(/C=C/C3=[N+](CC(C)C)c4ccccc4C3(C)C)CCC/C2=C\C=C2\N(CC(C)C)c3ccccc3C2(C)C)cc1.[I-] [CypH-20]: T
- CCN1/C(=C/C=C2\CCCC(/C=C/C3=[N+](CC)c4ccccc4C3(C)C)=C2Oc2ccc(N(C)C)cc2)C(C)(C)c2ccccc21 [CypH-2]: T
- CCN1/C(=C/C=C2\CCCC(/C=C/C3=[N+](CC)c4ccccc4C3(C)C)=C2Oc2ccc(N(C)C(C)C)cc2)C(C)(C)c2ccccc21 [CypH-10]: T
- CCCN1/C(=C/C=C2\CCCC(/C=C/C3=[N+](CCC)c4ccccc4C3(C)C)=C2Oc2ccc(N(C)C(C)C)cc2)C(C)(C)c2ccccc21.[I-] [CypH-16]: T
- CCN(CC)c1ccc(OC2=C(/C=C/C3=[N+](C)c4ccccc4C3(C)C)CCC/C2=C\C=C2\N(C)c3ccccc3C2(C)C)cc1.[Cl-] [CypH-14]: T
- CCN(C)c1ccc(OC2=C(/C=C/C3=[N+](C)c4ccccc4C3(C)C)CC/C2=C\C=C2\N(C)c3ccccc3C2(C)C)cc1.[Cl-] [CypH-8]: F
- CC(C)N(C)c1ccc(OC2=C(/C=C/C3=[N+](C)c4ccccc4C3(C)C)CCC/C2=C\C=C2\N(C)c3ccccc3C2(C)C)cc1 [CypH-12]: T
- CC(C)CN1/C(=C/C=C2\CCCC(/C=C/C3=[N+](CC(C)C)c4ccccc4C3(C)C)=C2Oc2ccc(N(C)C(C)C)cc2)C(C)(C)c2ccccc21.[I-] [CypH-13]: T
- CN(C)c1ccc(OC2=C(/C=C/C3=[N+](C)c4ccccc4C3(C)C)CC/C2=C\C=C2\N(C)c3ccccc3C2(C)C)cc1.[Cl-] [CypH-4]: T
- CCN(C)c1ccc(OC2=C(/C=C/C3=[N+](C(C)C)c4ccccc4C3(C)C)CCC/C2=C\C=C2\N(C(C)C)c3ccccc3C2(C)C)cc1 [CypH-17]: F
- CCN(C)c1ccc(OC2=C(/C=C/C3=[N+](CC)c4ccccc4C3(C)C)CCC/C2=C\C=C2\N(CC)c3ccccc3C2(C)C)cc1 [CypH-7]: T
- CCN(C)c1ccc(OC2=C(/C=C/C3=[N+](CCCS(=O)(=O)[O-])c4ccccc4C3(C)C)CCC/C2=C\C=C2\N(CCCS(=O)(=O)[O-])c3ccccc3C2(C)C)cc1.[Na+] [CypH-6]: T
- CC(C)N(C)c1ccc(OC2=C(/C=C/C3=[N+](C(C)C)c4ccccc4C3(C)C)CCC/C2=C\C=C2\N(C(C)C)c3ccccc3C2(C)C)cc1.[I-] [CypH-11]: F
- CC(C)CN1/C(=C/C=C2\CCCC(/C=C/C3=[N+](CC(C)C)c4ccccc4C3(C)C)=C2Oc2ccc(N(C)C)cc2)C(C)(C)c2ccccc21.[I-] [CypH-19]: F
- CCCN1/C(=C/C=C2\CCCC(/C=C/C3=[N+](CCC)c4ccccc4C3(C)C)=C2Oc2ccc(N(C)C)cc2)C(C)(C)c2ccccc21.[I-] [CypH-15]: F
- CCN(C)c1ccc(OC2=C(/C=C/C3=[N+](C)c4ccccc4C3(C)C)CCC/C2=C\C=C2\N(C)c3ccccc3C2(C)C)cc1 [CypH-5]: T

====

Test Description: Fluorescence properties of the CypH dyes at pH 5.0 and pH 7.5 (Table 2)
Format: physicochemical
Condition Summary: pH 5.0
Experimental Endpoint: FL Intensity pH 5.0

• CC(C)N(C)c1ccc(OC2=C(/C=C/C3=[N+](C(C)C)c4ccccc4C3(C)C)CCC/C2=C\C=C2\N(C(C)C)c3ccccc3C2(C)C)cc1.[I-] = 5028
• CCN(C)c1ccc(OC2=C(/C=C/C3=[N+](C(C)C)c4ccccc4C3(C)C)CCC/C2=C\C=C2\N(C(C)C)c3ccccc3C2(C)C)cc1 = 4468
• CC(C)N(C)c1ccc(OC2=C(/C=C/C3=[N+](C)c4ccccc4C3(C)C)CCC/C2=C\C=C2\N(C)c3ccccc3C2(C)C)cc1 = 4285
• CCN(C)c1ccc(OC2=C(/C=C/C3=[N+](C)c4ccccc4C3(C)C)CC/C2=C\C=C2\N(C)c3ccccc3C2(C)C)cc1.[Cl-] = 2816
• CC(C)N(C)c1ccc(OC2=C(/C=C/C3=[N+](CCCS(=O)(=O)[O-])c4ccccc4C3(C)C)CCC/C2=C\C=C2\N(CCCS(=O)(=O)[O-])c3ccccc3C2(C)C)cc1.[Na+] = 5125
• CCN1/C(=C/C=C2\CCCC(/C=C/C3=[N+](CC)c4ccccc4C3(C)C)=C2Oc2ccc(N(C)C(C)C)cc2)C(C)(C)c2ccccc21 = 5380
• CCCN1/C(=C/C=C2\CCCC(/C=C/C3=[N+](CCC)c4ccccc4C3(C)C)=C2Oc2ccc(N(C)C)cc2)C(C)(C)c2ccccc21.[I-] = 4313

====

Property: FL Intensity pH 7.5; scope: individual compounds
Test Description: Fluorescence properties of the CypH dyes at pH 5.0 and pH 7.5 (Table 2)
Format: physicochemical
Condition Summary: pH 7.5
Experimental Endpoint: FL Intensity pH 7.5

* CCN(CC)c1ccc(OC2=C(/C=C/C3=[N+](C)c4ccccc4C3(C)C)CCC/C2=C\C=C2\N(C)c3ccccc3C2(C)C)cc1.[Cl-] | 958
* CCN(C)c1ccc(OC2=C(/C=C/C3=[N+](CCCS(=O)(=O)[O-])c4ccccc4C3(C)C)CCC/C2=C\C=C2\N(CCCS(=O)(=O)[O-])c3ccccc3C2(C)C)cc1.[Na+] | 405
* CC(C)N(C)c1ccc(OC2=C(/C=C/C3=[N+](C(C)C)c4ccccc4C3(C)C)CCC/C2=C\C=C2\N(C(C)C)c3ccccc3C2(C)C)cc1.[I-] | 45
* CCN(C)c1ccc(OC2=C(/C=C/C3=[N+](CC)c4ccccc4C3(C)C)CCC/C2=C\C=C2\N(CC)c3ccccc3C2(C)C)cc1 | 204
* CCN(C)c1ccc(OC2=C(/C=C/C3=[N+](C(C)C)c4ccccc4C3(C)C)CCC/C2=C\C=C2\N(C(C)C)c3ccccc3C2(C)C)cc1 | 78
* CC(C)CN1/C(=C/C=C2\CCCC(/C=C/C3=[N+](CC(C)C)c4ccccc4C3(C)C)=C2Oc2ccc(N(C)C)cc2)C(C)(C)c2ccccc21.[I-] | 46
* CCN1/C(=C/C=C2\CCCC(/C=C/C3=[N+](CC)c4ccccc4C3(C)C)=C2Oc2ccc(N(C)C(C)C)cc2)C(C)(C)c2ccccc21 | 414
* CCCN1/C(=C/C=C2\CCCC(/C=C/C3=[N+](CCC)c4ccccc4C3(C)C)=C2Oc2ccc(N(C)C(C)C)cc2)C(C)(C)c2ccccc21.[I-] | 182
* CN(C)c1ccc(OC2=C(/C=C/C3=[N+](C)c4ccccc4C3(C)C)CCC/C2=C\C=C2\N(C)c3ccccc3C2(C)C)cc1.[Cl-] [CypH-1, reference compound] | 334
* CN(C)c1ccc(OC2=C(/C=C/C3=[N+](C)c4ccccc4C3(C)C)CC/C2=C\C=C2\N(C)c3ccccc3C2(C)C)cc1.[Cl-] | 83
* CC(C)CN1/C(=C/C=C2\CCCC(/C=C/C3=[N+](CC(C)C)c4ccccc4C3(C)C)=C2Oc2ccc(N(C)C(C)C)cc2)C(C)(C)c2ccccc21.[I-] | 120
* CC(C)N(C)c1ccc(OC2=C(/C=C/C3=[N+](CCCS(=O)(=O)[O-])c4ccccc4C3(C)C)CCC/C2=C\C=C2\N(CCCS(=O)(=O)[O-])c3ccccc3C2(C)C)cc1.[Na+] | 972
* CCCN1/C(=C/C=C2\CCCC(/C=C/C3=[N+](CCC)c4ccccc4C3(C)C)=C2Oc2ccc(N(C)CC)cc2)C(C)(C)c2ccccc21.[I-] | 117
* CCN(C)c1ccc(OC2=C(/C=C/C3=[N+](CC(C)C)c4ccccc4C3(C)C)CCC/C2=C\C=C2\N(CC(C)C)c3ccccc3C2(C)C)cc1.[I-] | 104
* CCN(C)c1ccc(OC2=C(/C=C/C3=[N+](C)c4ccccc4C3(C)C)CCC/C2=C\C=C2\N(C)c3ccccc3C2(C)C)cc1 | 227
* CCN(C)c1ccc(OC2=C(/C=C/C3=[N+](C)c4ccccc4C3(C)C)CC/C2=C\C=C2\N(C)c3ccccc3C2(C)C)cc1.[Cl-] | 68
